Item-by-item account of IC50
- Target: MEK1^CA (human GST-MEK1, constitutively active, Ser218Asp and Ser222Asp) (Homo sapiens, UniProt Q02750, S218D/S222D)
- Construct: GST; made in house; host or cells: Escherichia coli
- Sequence (Q02750 whole entry S218D/S222D): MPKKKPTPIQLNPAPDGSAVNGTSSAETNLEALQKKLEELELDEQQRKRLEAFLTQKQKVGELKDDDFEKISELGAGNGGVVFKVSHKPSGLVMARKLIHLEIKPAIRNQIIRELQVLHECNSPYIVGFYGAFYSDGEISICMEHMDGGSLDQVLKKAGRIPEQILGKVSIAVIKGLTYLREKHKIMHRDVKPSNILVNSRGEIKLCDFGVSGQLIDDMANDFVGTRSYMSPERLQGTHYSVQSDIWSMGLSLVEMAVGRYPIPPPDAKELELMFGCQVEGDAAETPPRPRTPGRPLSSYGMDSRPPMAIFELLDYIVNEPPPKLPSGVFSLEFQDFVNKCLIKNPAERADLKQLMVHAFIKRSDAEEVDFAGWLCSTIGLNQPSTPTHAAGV
- Test method notes: MEK1 enzymatic activity assay (MEK1^CA / ERK2 / MBP, [γ-33P]ATP incorporation)
- Format: biochemical
- Recorded conditions: Table 1, compounds of formula I; read-out: Avg IC50

# Molecule, IC50
rows = [
    ("COc1ccc(CNC(=N)c2c(O)nsc2NCc2ccc(OC)cc2)cc1 [compound 115]", "> 500 nM"),
]

Read the next record carefully.
Task: Identify IC50 associated with the molecule N=C(NCC(O)CO)c1c(O)nsc1Nc1ccc(C2CCCCC2)cc1 (centres unmarked) [compound 186]
Output: > 500 nM

---

Item-by-item account of pIC50
- Target: MEK1^CA (human GST-MEK1, constitutively active, Ser218Asp and Ser222Asp) (Homo sapiens, UniProt Q02750, S218D/S222D)
- Construct: GST; made in house; host or cells: Escherichia coli
- Test method notes: MEK1 enzymatic activity assay (MEK1^CA / ERK2 / MBP, [γ-33P]ATP incorporation)
- Format: biochemical
- Recorded conditions: Table 2, Ar1-A contains an amido or indolo group; read-out: IC 50
pIC50: −log10 of the molar value.

Guide cases for pIC50, answers given:
# Molecule, Observed property, Reported result
measured = [
    ("N=C(NCCCCO)c1c(O)nsc1Nc1ccc(C(=O)N2CCc3ccccc32)cc1 [E-14]", "pIC50", "< 6.00"),
    ("N=C(NCCO)c1c(O)nsc1Nc1ccc(C(=O)N2CCc3ccccc32)cc1 [E-13]", "pIC50", "< 6.00"),
    ("N=C(NCCCO)c1c(O)nsc1Nc1ccc(C(=O)N2CCc3ccccc32)cc1 [E-11]", "pIC50", "6.70 to 9.00"),
    ("CC(C)NC(=N)c1c(O)nsc1Nc1ccc(C(=O)NC(C)C)cc1 [E-9]", "pIC50", "6.00 to 6.70"),
    ("N=C(NCC(O)CO)c1c(O)nsc1Nc1ccc(C(=O)N2CCc3ccccc32)cc1 (centres unmarked) [E-12]", "pIC50", "6.00 to 6.70"),
    ("CC(CO)NC(=N)c1c(O)nsc1Nc1ccc(C(=O)Nc2ccccc2)cc1 (centres unmarked) [E-5]", "pIC50", "< 6.00"),
    ("CC(C)NC(=N)c1c(O)nsc1Nc1ccc(C(=O)N2CCN(C)CC2)cc1 [E-19]", "pIC50", "< 6.00"),
    ("CC(CO)NC(=N)c1c(O)nsc1Nc1ccc(C(=O)N2CCc3ccccc32)cc1 (centres unmarked) [E-16]", "pIC50", "6.70 to 9.00"),
    ("CNC(=N)c1c(O)nsc1Nc1ccc(C(=O)N2CCc3cc(F)ccc32)cc1 [E-22]", "pIC50", "< 6.00"),
    ("N=C(NCC1CCCCC1)c1c(O)nsc1Nc1ccc(S(=O)(=O)Nc2ccccc2)cc1 [E-2]", "pIC50", "< 6.00"),
]

Read the next record carefully.
Task: Identify pIC50 associated with the molecule N=C(NCCCCO)c1c(O)nsc1Nc1ccc(C(=O)Nc2ccccc2)cc1 [E-6]
Output: < 6.00
